# System: 233499-124-R-J3-PDC complex spheroid growth
# EXPERIMENTAL_PROTOCOL: Anticancer human tumor 233499-124-R-J3-PDC patient-derived colon adenocarcinoma cell line growth inhibition [AhR]; active = viability on the fitted dose curve at most 10% of control; inactive = the rest
# ASSAY_CONDITIONS: second compound 10 µM; first compound 3 µM
In this exercise, the only acceptable responses are TRUE (active), FALSE (inactive)

Below, 2 compounds whose answers are already recorded.
CCN(c1cc(-c2ccc(CN3CCOCC3)cc2)cc(C(=O)NCc2c(C)cc(C)[nH]c2=O)c1C)C1CCOCC1 + CC(CO)NC(=O)c1cc(-c2ccc(Cl)cc2)nn(-c2cnn(C)c2)c1=O : FALSE
CCN(c1cc(-c2ccc(CN3CCOCC3)cc2)cc(C(=O)NCc2c(C)cc(C)[nH]c2=O)c1C)C1CCOCC1 + Cc1cncc(-c2nc(NCCc3c[nH]c4ccccc34)c3ncn(C(C)C)c3n2)c1 : TRUE

Hello, I am checking results. What call was entered for O=C(C=Cn1cnc(-c2cc(C(F)(F)F)cc(C(F)(F)F)c2)n1)NNc1cnccn1 + Cc1ccccc1N=Nc1ccc(NC(=O)c2ccnn2C)c(C)c1 ?
FALSE

Fill in: this test's call for CCN(c1cc(-c2ccc(CN3CCOCC3)cc2)cc(C(=O)NCc2c(C)cc(C)[nH]c2=O)c1C)C1CCOCC1 + Cc1ccccc1N=Nc1ccc(NC(=O)c2ccnn2C)c(C)c1 is ___
FALSE

What did this assay record as the result for O=C(C=Cn1cnc(-c2cc(C(F)(F)F)cc(C(F)(F)F)c2)n1)NNc1cnccn1 + CC(CO)NC(=O)c1cc(-c2ccc(Cl)cc2)nn(-c2cnn(C)c2)c1=O ?
FALSE

Please indicate how the test categorized O=C(C=Cn1cnc(-c2cc(C(F)(F)F)cc(C(F)(F)F)c2)n1)NNc1cnccn1 + Cc1cncc(-c2nc(NCCc3c[nH]c4ccccc34)c3ncn(C(C)C)c3n2)c1 .
FALSE

====

Kindly state viability, T/C for each of the entries shown.
# System: 233499-124-R-J3-PDC complex spheroid growth
# EXPERIMENTAL_PROTOCOL: Anticancer human tumor 233499-124-R-J3-PDC cell line growth inhibition [AhR];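 note: spheroids exposed to agents for seven days before reading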
# ASSAY_CONDITIONS: second compound 0.1 µM; first compound 10 µM; hits give low values

Reference set (5 entries):
COc1cc(Nc2ncc3c(n2)-c2ccc(Cl)cc2C(c2c(F)cccc2OC)=NC3)ccc1C(=O)O + Cc1cncc(-c2nc(NCCc3c[nH]c4ccccc34)c3ncn(C(C)C)c3n2)c1 : 84.2%
COc1cccc2c1C(=O)c1c(O)c3c(c(O)c1C2=O)CC(O)(C(=O)CO)CC3OC1CC(N)C(O)C(C)O1 (stereo unspecified) + CC(CO)NC(=O)c1cc(-c2ccc(Cl)cc2)nn(-c2cnn(C)c2)c1=O : 31.8%
COc1ccc([C@@H](O)c2cc(-c3ncnc4cc(N5CCOCC5)ccc34)c(F)cc2Cl)nn1 + Cc1ccccc1N=Nc1ccc(NC(=O)c2ccnn2C)c(C)c1 : 89.2%
CC1COCCN1c1cc(C2(S(C)(=N)=O)CC2)nc(-c2ccnc3[nH]ccc23)n1 (stereo unspecified) + CC(CO)NC(=O)c1cc(-c2ccc(Cl)cc2)nn(-c2cnn(C)c2)c1=O : 74.1%
Nc1ccn(C2OC(CO)C(O)C2(F)F)c(=O)n1 (stereo unspecified) + Cc1cncc(-c2nc(NCCc3c[nH]c4ccccc34)c3ncn(C(C)C)c3n2)c1 : 47.2%

Give the measured viability, T/C of COc1ccc([C@@H](O)c2cc(-c3ncnc4cc(N5CCOCC5)ccc34)c(F)cc2Cl)nn1 + CC(CO)NC(=O)c1cc(-c2ccc(Cl)cc2)nn(-c2cnn(C)c2)c1=O .
84.7%
